B1: glmS ribozyme (parent)
chain: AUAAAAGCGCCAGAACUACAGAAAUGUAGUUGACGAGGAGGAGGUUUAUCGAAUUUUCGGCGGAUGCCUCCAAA

Variants of: B1
Assay: KM; higher = weaker cofactor use; RNA array
Conditions: with glucosamine-6-phosphate
// reported KM for each item listed
Give the quantity in µM, number only.

Some entries whose results are on file:
U47A U56G
3000
A6C C67U
660
G13U U46G
1460
A12C U30C C71U
3540
A14G U30C
1880

Please fill in: KM reported for A12G U55G = 6630

Notebook: `U30C` , KM read as 1950

Measured KM of U31C C34G : 1370

So, U55G G66U ? Its KM was 4240
